B1: Far upstream element-binding protein 3, residues 75 to 150; numbered along this chain, Q96I24 (parent)
chain: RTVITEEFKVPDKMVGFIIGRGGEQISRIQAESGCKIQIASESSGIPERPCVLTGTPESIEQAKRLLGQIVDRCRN

- Variants of: B1
- TEST NAME: abundance fitness (aPCA) (normalised: wild type 0, dead -1); higher = more abundant; growth selection in yeast, the domain comes from the species named
- STUDY CONDITIONS: Homo sapiens
Values of abundance fitness greater than or equal to -0.1 map to yes; values below map to no.

* F8M | yes
* E6D | yes
* G68H | yes
* E32I | yes
* L53H | no
* I18K | no
* G45A | yes
* S27C | no
* I60G | no
* V10G | no
* R65T | yes
* P57D | no
* T2Q | yes
* I18R | no
* S41W | no
* A40T | yes
* E7Q | yes
* L53P | no
* E24V | yes
* S33N | no
* I39M | yes
* E6F | no
* I19D | yes
* Q38R | yes
* R21S | yes
* R1Y | no
* T2G | yes
* F17D | yes
* R49A | no
* P47M | yes
* R1C | yes
* E61I | no
* I29P | no
* T54V | yes
* C51N | no
